ASSAYED_TARGET: human SSTR1 (Homo sapiens, UniProt P30872)
Construct: expressed in transfected cells; host or cells: CHO-K1 cells and CCL39 cells
Sequence (P30872 whole entry): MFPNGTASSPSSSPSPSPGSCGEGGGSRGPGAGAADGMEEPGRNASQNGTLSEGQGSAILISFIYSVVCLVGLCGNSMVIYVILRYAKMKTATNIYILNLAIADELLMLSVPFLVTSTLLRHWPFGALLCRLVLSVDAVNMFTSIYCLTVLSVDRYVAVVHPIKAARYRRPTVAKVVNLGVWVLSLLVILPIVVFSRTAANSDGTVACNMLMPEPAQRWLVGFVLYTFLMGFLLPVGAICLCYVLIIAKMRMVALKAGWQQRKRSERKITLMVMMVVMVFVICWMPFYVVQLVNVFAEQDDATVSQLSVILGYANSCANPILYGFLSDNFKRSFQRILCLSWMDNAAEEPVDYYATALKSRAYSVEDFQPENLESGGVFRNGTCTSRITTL
ASSAY_OVERVIEW: Displacement of 125I-[Leu8,D-Trp22,Tyr25]-SRIF-28 from cloned SSTR1 (receptor autoradiography)
Type: binding
CONDITION: inhibition of radioligand binding of 125I-[Leu8,D-Trp22,Tyr24]SRIF-28, cloned receptor; table; read-out: IC50 (nM) mSSTR1
Method: Generally, recombinant cells expressing the receptor are washed and homogenized to prepare a crude protein homogenate that is frozen, embedded and then cut in 10–20 μm thin sections, as known in this art. Candidate substances, such as potential SRIF agonists and antagonists, are incubated with the tissue sections, and the interaction between the candidate substance and the receptor polypeptide is monitored. […]
*1 amine or outer side, *2 acyl side, *3 side chain or, on linkers, in order; H or OH if unused. Where a SMILES comes first, the peptide text is derived from it. Bridges are numbered along the chain shown (N, C = ends). [ ]: non-standard residue; d: D form. The star is where a group is joined. NMePhe(4-CH2NHiPr) = CN[C@@H](Cc1ccc(CNC(C)C)cc1)C(=O)O; Tyr(Nα-carbamoyl) = NC(=O)N[C@@H](Cc1ccc(O)cc1)C(=O)*; Phe(4-CH2NHiPr) = CC(C)NCc1ccc(C[C@H](N)C(=O)O)cc1; Tyr(3-I) = N[C@@H](Cc1ccc(O)c(I)c1)C(=O)O; X3 = NC(=O)N[C@@H](Cc1ccc(O)c(I)c1)C(=O)*; X1 = NC(=O)N[C@@H](CS[*:2])C(=O)[*:1]; d2Nal = N[C@H](Cc1ccc2ccccc2c1)C(=O)O
Threshold 20 nM. IC50 below it: condition met. IC50 at it or above: condition not met.

Worked examples, 8 compounds total:
# strict comparison: is reported IC50 < 20 nM? input = CC(C)NCc1ccc(C[C@H]2C(=O)N[C@@H]([C@@H](C)O)C(=O)N[C@@H](Cc3ccc(O)cc3)C(=O)N[C@@H]([C@@H](C)O)C(=O)N[C@@H](CO)C(=O)N[C@H](C(=O)O)CSSC[C@H](N)C(=O)N[C@@H](CCCCN)C(=O)N[C@@H](Cc3ccccc3)C(=O)N[C@@H](Cc3ccccc3)C(=O)N[C@H](Cc3c[nH]c4ccccc34)C(=O)N2C)cc1 [Peptide No. 2] (H-CKFF[dW][NMePhe(4-CH2NHiPr)]TYTSC-OH; disulfide 1-11)
condition met

# strict comparison: is reported IC50 < 20 nM? input = CC(C)NCc1ccc(C[C@H]2C(=O)N[C@@H]([C@@H](C)O)C(=O)N[C@@H](Cc3ccc(O)cc3)C(=O)N[C@@H]([C@@H](C)O)C(=O)N[C@@H](CO)C(=O)N[C@H](C(=O)O)CSSC[C@H](NC(N)=O)C(=O)N[C@@H](CCCCN)C(=O)N[C@@H](Cc3ccccc3)C(=O)N[C@@H](Cc3ccccc3)C(=O)N[C@H](Cc3c[nH]c4ccccc34)C(=O)N2C)cc1 [Peptide No. 12] (KFF[dW][NMePhe(4-CH2NHiPr)]TYTSC-OH; linker N-10 via X1)
condition not met

# strict comparison: is reported IC50 < 20 nM? input = CC(C)NCc1ccc(C[C@H]2C(=O)N[C@@H]([C@@H](C)O)C(=O)N[C@@H](Cc3ccc(O)cc3)C(=O)N[C@@H]([C@@H](C)O)C(=O)N[C@@H](CO)C(=O)N[C@H](C(=O)O)CSSC[C@H](N)C(=O)N[C@@H](CCCCN)C(=O)N[C@@H](Cc3ccccc3)C(=O)N[C@@H](Cc3ccccc3)C(=O)N[C@H](Cc3ccc4ccccc4c3)C(=O)N2C)cc1 [Peptide No. 9A] (H-CKFF[d2Nal][NMePhe(4-CH2NHiPr)]TYTSC-OH; disulfide 1-11)
condition not met

# strict comparison: is reported IC50 < 20 nM? input = CC(C)NCc1ccc(C[C@H]2C(=O)N[C@@H]([C@@H](C)O)C(=O)N[C@@H](Cc3ccccc3)C(=O)N[C@@H]([C@@H](C)O)C(=O)N[C@@H](CO)C(=O)N[C@H](C(=O)O)CSSC[C@H](NC(=O)[C@@H](N)Cc3ccc(O)cc3)C(=O)N[C@@H](CCCCN)C(=O)N[C@@H](Cc3ccccc3)C(=O)N[C@@H](Cc3ccccc3)C(=O)N[C@H](Cc3c[nH]c4ccccc34)C(=O)N2C)cc1 [Peptide No. 27] (H-YCKFF[dW][NMePhe(4-CH2NHiPr)]TFTSC-OH; disulfide 2-12)
condition not met

# strict comparison: is reported IC50 < 20 nM? input = CC(C)NCc1ccc(C[C@@H]2NC(=O)[C@@H](Cc3c[nH]c4ccccc34)NC(=O)[C@H](Cc3ccccc3)NC(=O)[C@H](Cc3ccccc3)NC(=O)[C@H](CCCCN)NC(=O)[C@H](NC(=O)[C@H](Cc3ccc(O)cc3)NC(N)=O)CSSC[C@@H](C(=O)O)NC(=O)[C@H](CO)NC(=O)[C@H]([C@@H](C)O)NC(=O)[C@H](Cc3ccccc3)NC(=O)[C@H]([C@@H](C)O)NC2=O)cc1 [Peptide No. 14C] ({Tyr(Nα-carbamoyl)}-[dC]KFF[dW][Phe(4-CH2NHiPr)]TFTSC-OH; disulfide 1-11)
condition not met

# strict comparison: is reported IC50 < 20 nM? input = CC(C)NCc1ccc(C[C@@H]2NC(=O)[C@@H](Cc3c[nH]c4ccccc34)NC(=O)[C@H](Cc3ccccc3)NC(=O)[C@H](Cc3ccccc3)NC(=O)[C@H](CCCCN)NC(=O)[C@@H](NC(=O)[C@H](Cc3ccc(O)c(I)c3)NC(N)=O)CSSC[C@@H](C(=O)O)NC(=O)[C@H](CO)NC(=O)[C@H]([C@@H](C)O)NC(=O)[C@H](Cc3ccccc3)NC(=O)[C@H]([C@@H](C)O)NC2=O)cc1 [Peptide No. 14B] (X3-CKFF[dW][Phe(4-CH2NHiPr)]TFTSC-OH; disulfide 1-11)
condition not met

# strict comparison: is reported IC50 < 20 nM? input = CC(C)NCc1ccc(C[C@H]2C(=O)N[C@@H]([C@@H](C)O)C(=O)N[C@@H](Cc3ccc(O)c(I)c3)C(=O)N[C@@H]([C@@H](C)O)C(=O)N[C@@H](CO)C(=O)N[C@H](C(=O)O)CSSC[C@H](NC(N)=O)C(=O)N[C@@H](CCCCN)C(=O)N[C@@H](Cc3ccccc3)C(=O)N[C@@H](Cc3ccccc3)C(=O)N[C@H](Cc3c[nH]c4ccccc34)C(=O)N2C)cc1 [Peptide No. 12D] (KFF[dW][NMePhe(4-CH2NHiPr)]T[Tyr(3-I)]TSC-OH; linker N-10 via X1)
condition met

# strict comparison: is reported IC50 < 20 nM? input = CC(C)NCc1ccc(C[C@H]2C(=O)N[C@@H]([C@@H](C)O)C(=O)N[C@@H](Cc3ccc(O)cc3)C(=O)N[C@@H]([C@@H](C)O)C(=O)N[C@@H](CO)C(=O)N[C@H](C(=O)O)CSSC[C@H](NC(N)=O)C(=O)N[C@@H](CCCCN)C(=O)N[C@@H](Cc3ccccc3)C(=O)N[C@@H](Cc3ccccc3)C(=O)N[C@H](Cc3ccc4ccccc4c3)C(=O)N2C)cc1 [Peptide No. 16] (KFF[d2Nal][NMePhe(4-CH2NHiPr)]TYTSC-OH; linker N-10 via X1)
condition not met

# next compound below
# strict comparison: is reported IC50 < 20 nM? input = CC(C)NCc1ccc(C[C@H]2C(=O)N[C@@H]([C@@H](C)O)C(=O)N[C@@H](Cc3ccccc3)C(=O)N[C@@H]([C@@H](C)O)C(=O)N[C@@H](CO)C(=O)N[C@H](C(=O)O)CSSC[C@H](N)C(=O)N[C@@H](CCCCN)C(=O)N[C@@H](Cc3ccccc3)C(=O)N[C@@H](Cc3ccccc3)C(=O)N[C@H](Cc3c[nH]c4ccccc34)C(=O)N2C)cc1 [Peptide No. 13] (H-CKFF[dW][NMePhe(4-CH2NHiPr)]TFTSC-OH; disulfide 1-11)
condition met
